viability, T/C values for the compounds below.
Test system: 485368-065-R3-J5-PDC spheroids with HUVEC/MSC, viability
assay-protocol: Anticancer human tumor 485368-065-R3-J5-PDC patient-derived pancreatic carcinoma cell line growth inhibition [RAS]
assay-context: second compound 0.3 µM; first compound 1 µM; stronger effect = lower value
Excerpt: RAS pathway inhibitors in Combinations in Complex Spheroids A high-throughput screen of multi-cell type tumor spheroids was designed to identify active combinations of RAS pathway inhibitors and targeted small molecules. Complex spheroids include a stromal component modeled by human endothelial cells (HUVEC) and fibroblasts modeled by human mesenchymal stem cells (MSCs). […] Compounds. […] If the clinical Cmax for an agent had not been determined, the highest concentration tested was 10 microM. […]
Just the number please, in %, no unit attached.

Given Nc1ccn(C2OC(CO)C(O)C2(F)F)c(=O)n1 (centres undefined) + CCn1c(-c2cccnc2C(C)OC)c2c3cc(ccc31)N1CCOC(CC(NC(=O)C(C(C)C)N(C)C(=O)C3(F)CCN(C(=O)C#CC(C)(C)N(C)C)CC3)C(=O)N3CCCC(N3)C(=O)OCC(C)(C)C2)C1 , state its recorded viability, T/C.
9.33

Given CCC(CC)c1cc(NC2CCC(N)C2)n2nccc2n1 (centres undefined) + CCn1c(-c2cccnc2C(C)OC)c2c3cc(ccc31)N1CCOC(CC(NC(=O)C(C(C)C)N(C)C(=O)C3(F)CCN(C(=O)C#CC(C)(C)N(C)C)CC3)C(=O)N3CCCC(N3)C(=O)OCC(C)(C)C2)C1 , state its recorded viability, T/C.
123

Given C=CC(=O)Nc1cc(Nc2nccc(-c3cn(C)c4ccccc34)n2)c(OC)cc1N(C)CCN(C)C + CCn1c(-c2cccnc2C(C)OC)c2c3cc(ccc31)N1CCOC(CC(NC(=O)C(C(C)C)N(C)C(=O)C3(F)CCN(C(=O)C#CC(C)(C)N(C)C)CC3)C(=O)N3CCCC(N3)C(=O)OCC(C)(C)C2)C1 , state its recorded viability, T/C.
101

Given C=CC(=O)N1CCN(c2nc(OCC3CCCN3C)nc3c(F)c(-c4nc(N)cc(C)c4C(F)(F)F)c(Cl)cc23)C(C)C1 (centres undefined) + CCn1c(-c2cc(N3CCN(C)CC3)cnc2C(C)OC)c2c3cc(ccc31)-c1csc(n1)CC(NC(=O)C1CC1C)C(=O)N1CCCC(N1)C(=O)OCC(C)(C)C2 , state its recorded viability, T/C.
11

---

viability, T/C values for the molecules below.
Tested on: 485368-065-R3-J5-PDC spheroids with HUVEC/MSC, viability
assay-protocol: Anticancer human tumor 485368-065-R3-J5-PDC cell line growth inhibition [RAS];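 note: spheroids exposed to agents for seven days before readout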
assay-context: compound 1 µM; stronger effect = lower value

Some molecules with recorded viability, T/C:
Nc1ccn(C2OC(CO)C(O)C2(F)F)c(=O)n1 (stereo not drawn) | 11.3% [middle of 4 runs]
NC1c2ccccc2OC12CCN(c1cnc3c(N4CCCc5ncccc54)n[nH]c3n1)CC2 (stereo not drawn) | 70.1% [middle of 4 runs]

Given CC(Nc1ccc2c(c1)OCCn1cc(N3C(=O)OCC3C(F)F)nc1-2)C(N)=O (stereo not drawn) , state its recorded viability, T/C.
82.1% [middle of 4 runs]

---

pIC50 values for the compounds below.
System: 485368-065-R3-J5-PDC spheroids with HUVEC/MSC, viability
assay-protocol: Anticancer human tumor 485368-065-R3-J5-PDC cell line growth inhibition [RAS];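 note: spheroids exposed to agents for seven days before readout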
assay-context: curve of first compound; second compound 0.00949 µM
From the text: RAS pathway inhibitors in Combinations in Complex Spheroids A high-throughput screen of multi-cell type tumor spheroids was designed to identify active combinations of RAS pathway inhibitors and targeted small molecules. Complex spheroids include a stromal component modeled by human endothelial cells (HUVEC) and fibroblasts modeled by human mesenchymal stem cells (MSCs). […] Compounds. […] If the clinical Cmax for an agent had not been determined, the highest concentration tested was 10 microM. […]
Please note pIC50 is a logarithmic value: minus log10 of concentration in mol/L. Answer with that number alone.

CCC(CC)c1cc(NC2CCC(N)C2)n2nccc2n1 (centres undefined) + CCn1c(-c2cccnc2C(C)OC)c2c3cc(ccc31)N1CCOC(CC(NC(=O)C(C(C)C)N(C)C(=O)C3(F)CCN(C(=O)C#CC(C)(C)N(C)C)CC3)C(=O)N3CCCC(N3)C(=O)OCC(C)(C)C2)C1 | 5.70

Next:
Given CCN1CCN(Cc2ccc(Nc3ncc(F)c(-c4cc(F)c5nc(C)n(C(C)C)c5c4)n3)nc2)CC1 + CCn1c(-c2cccnc2C(C)OC)c2c3cc(ccc31)N1CCOC(CC(NC(=O)C(C(C)C)N(C)C(=O)C3(F)CCN(C(=O)C#CC(C)(C)N(C)C)CC3)C(=O)N3CCCC(N3)C(=O)OCC(C)(C)C2)C1 , state its recorded pIC50.
6.03

---

System: 485368-065-R3-J5-PDC spheroids with HUVEC/MSC, viability
assay-protocol: Anticancer human tumor 485368-065-R3-J5-PDC cell line growth inhibition [RAS];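 note: spheroids exposed to agents for seven days before readout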
assay-context: second compound 0.00316 µM; first compound 0.316 µM; stronger effect = lower value
Text: RAS pathway inhibitors in Combinations in Complex Spheroids A high-throughput screen of multi-cell type tumor spheroids was designed to identify active combinations of RAS pathway inhibitors and targeted small molecules. Complex spheroids include a stromal component modeled by human endothelial cells (HUVEC) and fibroblasts modeled by human mesenchymal stem cells (MSCs). […] Compounds. […] If the clinical Cmax for an agent had not been determined, the highest concentration tested was 10 microM. […]
observed-property: viability, T/C

Some compounds with recorded viability, T/C:
Nc1ccn(C2OC(CO)C(O)C2(F)F)c(=O)n1 (centres undefined) + C=CC(=O)N1CCN(c2nc(OCC3CCCN3C)nc3c(F)c(-c4nc(N)cc(C)c4C(F)(F)F)c(Cl)cc23)C(C)C1 | 8.08%
C=CC(=O)Nc1cc(Nc2nccc(-c3cn(C)c4ccccc34)n2)c(OC)cc1N(C)CCN(C)C + C=CC(=O)N1CCN(c2nc(OCC3CCCN3C)nc3c(F)c(-c4nc(N)cc(C)c4C(F)(F)F)c(Cl)cc23)C(C)C1 | 108%

Given Cc1nc(N2CCC3(CC2)COC(C)C3N)c(CO)nc1Sc1ccnc(N)c1Cl (centres undefined) + C=CC(=O)N1CCN(c2nc(OCC3CCCN3C)nc3c(F)c(-c4nc(N)cc(C)c4C(F)(F)F)c(Cl)cc23)C(C)C1 , state its recorded viability, T/C.
83.6%

Given CC(=O)OC12COC1CC(O)C1(C)C(=O)C(O)C3=C(C)C(OC(=O)C(O)C(NC(=O)OC(C)(C)C)c4ccccc4)CC(O)(C(OC(=O)c4ccccc4)C21)C3(C)C (centres undefined) + C=CC(=O)N1CCN(c2nc(OCC3CCCN3C)nc3c(F)c(-c4nc(N)cc(C)c4C(F)(F)F)c(Cl)cc23)C(C)C1 , state its recorded viability, T/C.
13.5%

Given C[C@@H](NC(=O)c1ncnc(N)c1Cl)c1ncc(C(=O)Nc2cc(C(F)(F)F)c(Cl)cn2)s1 + C=CC(=O)N1CCN(c2nc(OCC3CCCN3C)nc3c(F)c(-c4nc(N)cc(C)c4C(F)(F)F)c(Cl)cc23)C(C)C1 , state its recorded viability, T/C.
104%

Given NC1c2ccccc2OC12CCN(c1cnc3c(N4CCCc5ncccc54)n[nH]c3n1)CC2 (centres undefined) + C=CC(=O)N1CCN(c2nc(OCC3CCCN3C)nc3c(F)c(-c4nc(N)cc(C)c4C(F)(F)F)c(Cl)cc23)C(C)C1 , state its recorded viability, T/C.
78.5%

Given CC(Nc1ccc2c(c1)OCCn1cc(N3C(=O)OCC3C(F)F)nc1-2)C(N)=O (centres undefined) + C=CC(=O)N1CCN(c2nc(OCC3CCCN3C)nc3c(F)c(-c4nc(N)cc(C)c4C(F)(F)F)c(Cl)cc23)C(C)C1 , state its recorded viability, T/C.
88.5%

Given CC(C)NCC(C(=O)N1CCN(c2ncnc3c2C(C)CC3O)CC1)c1ccc(Cl)cc1 (centres undefined) + C=CC(=O)N1CCN(c2nc(OCC3CCCN3C)nc3c(F)c(-c4nc(N)cc(C)c4C(F)(F)F)c(Cl)cc23)C(C)C1 , state its recorded viability, T/C.
94.7%

Given CC1(O)CCCC1n1c(=O)c(C(F)F)cc2cnc(NC3CCN(S(C)(=O)=O)CC3)nc21 (centres undefined) + C=CC(=O)N1CCN(c2nc(OCC3CCCN3C)nc3c(F)c(-c4nc(N)cc(C)c4C(F)(F)F)c(Cl)cc23)C(C)C1 , state its recorded viability, T/C.
46.7%

---

System: 485368-065-R3-J5-PDC spheroids with HUVEC/MSC, viability
assay-protocol: Anticancer human tumor 485368-065-R3-J5-PDC cell line growth inhibition [RAS];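 note: spheroids exposed to agents for seven days before readout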
assay-context: curve of first compound; second compound 0.01 µM
pIC50 values for the compounds below.
Please note pIC50 is a logarithmic value: minus log10 of concentration in mol/L. Answer with that number alone.

CC1(O)CCCC1n1c(=O)c(C(F)F)cc2cnc(NC3CCN(S(C)(=O)=O)CC3)nc21 (stereo not drawn) + C=CC(=O)N1CCN(c2nc(OCC3CCCN3C)nc3c(F)c(-c4nc(N)cc(C)c4C(F)(F)F)c(Cl)cc23)C(C)C1 | 6.50

Given CCc1c2c(nc3ccc(O)cc13)-c1cc3c(c(=O)n1C2)COC(=O)[C@]3(O)CC + C=CC(=O)N1CCN(c2nc(OCC3CCCN3C)nc3c(F)c(-c4nc(N)cc(C)c4C(F)(F)F)c(Cl)cc23)C(C)C1 , state its recorded pIC50.
8.68
